Consider the following compounds and their measured TGI readings.
# Tested on: ACHN renal
# test_name: NCI tumour cell line growth inhibition, 48 h

Below: 4 compounds and their reported TGI.
compound	target_of_assay	TGI
O=C(CCN1CCCC1)Nc1ccc2c(NCCCc3ccccc3)c3ccccc3nc2c1	ACHN renal	2.8 µM
Cc1cc2c(-c3ccccc3)cc(=O)[nH]c2cc1N	ACHN renal	> 100 µM
CC(C)(C)OC(=O)NC(Cc1ccc([N+](=O)[O-])cc1)C(=O)NC(CCCCNC(=O)OCc1ccccc1)C(=O)ON1C(=O)CCC1=O (configuration not stated)	ACHN renal	> 100 µM
CC(C)[Si](OC1=CCCCCC12C(=O)N(C)c1ccccc12)(C(C)C)C(C)C (configuration not stated)	ACHN renal	35.9 µM

Turning to the following compound.
Please report TGI for the following compound: `CCCCCCCCCC(=O)CC(=O)c1c(O)cccc1O`
83.4 µM

###

# Test system: HOP-92 NSCLC
# test_name: NCI tumour cell line growth inhibition, 48 h
# label = Met if TGI >= 30 µM else Not met

compound	category_label
N#Cc1c(C#N)c(SSc2c(C#N)c(C#N)c(N)n2-c2ccccc2)n(-c2ccccc2)c1N	Not met
CCOC(=O)c1nc2cc(C(F)(F)F)ccc2nc1Nc1ccc(Cl)c(Cl)c1	Met
CSCCCCCCCCCCOc1ccc(C=C2C(=C(C#N)C#N)c3ccccc3C2=C(C#N)C#N)cc1	Not met
CCC1(C)N=C(C(N)=O)c2ncn(N=C(C)C)c2N1 (stereo not drawn)	Met
COc1ccc2c(c1)OC13Oc4cc(OC)ccc4C=C1CCCC3=C2	Met

Record `Cc1cc(=Nc2ccc3c(c2)c(N)cc(C)[n+]3C)nc(N)n1C` ; criterion: TGI no lower than 30 µM. Met?
Met

###

# Test system: SNB-75 CNS
# test_name: NCI tumour cell line growth inhibition, 48 h
Please use YES whenever TGI is not below 20 µM, and NO whenever it is.

Use the examples below as a reference point.
compound	category_label
NC(CSC(c1ccccc1)(c1ccccc1)c1ccc2ccccc2c1)C(=O)O (configuration not stated)	YES
c1ccc2c3nnc(c2c1)SCCSCCSc1nnc(c2ccccc12)SCCSCCS3	YES
CCOC(=O)c1c(SCCO)n(-c2ccccc2)c(=S)n(-c2ccccc2)c1=O	YES
CCN(CC)CCNc1ccc(C)c2sc3ccc(O)cc3c(=O)c12	NO

Assess whether reported TGI for CC1=C(C(=O)OC(C)C)C(c2ccccc2[N+](=O)[O-])C(C(=O)OC(CO[N+](=O)[O-])CO[N+](=O)[O-])=C(C)N1 (configuration not stated) sits at 20 µM or higher.
NO

Item `CC/C=C\CCC/C=C1/C(=O)C=C[C@@H]1C/C=C\CCCC(=O)O` with TGI of 20 µM or above?
YES

Could you please find out whether `C/C(=N\Nc1ccc([N+](=O)[O-])cc1)C(=O)N(C)Nc1ccccc1` has TGI that meets 20 µM or exceeds it?
YES

Check this compound for TGI at or above 20 µM: `O=Cc1coc2ccccc2c1=O`
NO

Answer whether TGI of `CCc1cccc(C)c1NC(=O)NS(=O)(=O)c1ccc(C)cc1` is greater than or equal to 20 µM.
YES

Could you verify whether the entry `Cc1ccc(S(=O)(=O)N/N=C2\C=C[C@]3(CC2)C(=O)N(C)c2ccccc23)cc1` shows TGI of no less than 20 µM?
YES

Record `COc1cc2c(cc1OC)CCN=C2` ; criterion: TGI no lower than 20 µM. Met?
YES

TGI >= 20 µM for C[Si](C)(C)/C=C/CN1C(=O)CCC1O (configuration not stated) ?
YES

###

# Test system: HOP-18 NSCLC
# test_name: NCI tumour cell line growth inhibition, 48 h
value_kind: TGI

Return value of TGI for input COc1ccc(C2S/C(=C\c3ccc(OC)cc3OC)C(=O)N2NC(=O)Cc2ccccc2)cc1 (stereo not drawn) , no commentary.
> 100 µM

Quick one: give measured TGI for `CC1(C)OCN(c2ccc(Cl)cc2)Cn2c1nc1ccccc12`
> 100 µM

Supply measured TGI of COc1ccc2c(c1)CC[C@@H]1C2CC[C@]2(C)C(=O)NC(=O)CC12 (stereo partly drawn) in your reply.
> 100 µM

###

# Test system: HCT-15 colon
# test_name: NCI tumour cell line growth inhibition, 48 h
value_kind: TGI

Name the recorded TGI of the compound listed here: `CCCc1c2c3ccccc3nc-2nc2ccccn12`
> 100 µM

For CC12ON=C(c3ccccc3)N1C=CN1C(c3ccccc3)=NOC12 (stereo not given) , write its TGI.
> 100 µM

Supply TGI value. Item: Nc1ccn(C2OC(COP(=O)(O)Oc3ccccc3)C(O)C2O)c(=O)n1 (stereo not given)
> 100 µM

Provide only the value of recorded TGI for `O=C(/C=C/c1ccc(Cl)c(Cl)c1)Oc1ccc(/C=C2\CCCCC2=O)cc1`
> 100 µM

Quick one: give measured TGI for `COC(=O)CCC1=C(C)c2cc3[n-]c(cc4nc(cc5[n-]c(cc1n2)c(CCC(=O)OC)c5C)C=C4C)cc3C.[Cd+2]`
> 55 µM

###

# System: HCT-116 colon
# test_name: NCI tumour cell line growth inhibition, 48 h
value_kind: TGI

compound	TGI
CCOC(=O)C(C[Si](C)(C)C)P(=O)(OCC)OCC (stereo not drawn)	> 100 µM
O=C1C2=C(c3ccccc31)C(c1ccccc1Cl)N1C(=O)CSC1=N2 (stereo not drawn)	> 100 µM

State measured TGI of the compound `CC(=O)c1cn(-c2ccc(Cl)cc2)c(=O)c2c(N)n[nH]c12` with HCT-116 colon.
> 100 µM

###

# Tested on: SR leukemia
# test_name: NCI tumour cell line growth inhibition, 48 h
value_kind: TGI (µM)
Dear colleague, please return just the value in µM, with no unit written.

compound	TGI, µM
O=c1c([Se]c2coc3ccccc3c2=O)coc2ccccc12	22.4

Now, please, on to the next compound.
Specify measured TGI for Cc1cn(C2CC(N=[N+]=[N-])C(CO[Si](C)(C)C(C)(C)C)O2)c(=O)[nH]c1=O (stereo not given) .
56.8

###

# System: SK-OV-3 ovarian
# test_name: NCI tumour cell line growth inhibition, 48 h; in the data active = GI50 below about 0.43 µM; inactive = the rest
Answer with one of the outcomes active, inactive

Check out these entries, answers already filled in.
smiles_entry	category_label
FC(F)(F)c1ccc(-c2cnc(Br)nc2NC2CCCCCC2)cc1	inactive
CC(=O)N1CC(F)(F)c2c(Sc3ncc(N4CCC5(CC4)COC[C@H]5N)nc3N)cccc21	inactive
O=C(/C=C/c1ccco1)Nc1ncc(Cc2ccc(F)cc2)s1	active
c1ccc(-c2nc(N3CCNCC3)c3nc(-c4ccccc4)oc3n2)cc1	inactive

# evaluate next
I'd appreciate the recorded outcome for `Oc1ccccc1-n1c(-c2ccccc2)ccc1-c1ccccc1` from this test.
inactive

###

# System: U251 CNS
# test_name: NCI tumour cell line growth inhibition, 48 h
value_kind: TGI

Worked cases, TGI given:
smiles_entry	observed_measurement
COc1cc2c(cc1OC)CCN=C2	> 100 µM
O=C(/C=C/c1ccc(Cl)c(Cl)c1)Oc1ccc(/C=C2\CCCCC2=O)cc1	> 100 µM

Could you now look at the following compound, please?
# return recorded TGI for entry `Cc1ccc(NC(=O)C(=O)Cc2nc3ccccc3o2)c(C)c1`
> 100 µM

###

TGI: recorded values
# Tested on: MDA-N
# test_name: NCI tumour cell line growth inhibition, 48 h
Where a SMILES comes first, the peptide text is derived from it. The star is where a group is joined. Cbz = O=C(OCc1ccccc1)*

Give recorded TGI. CC(C)(C)OC(=O)NC(Cc1ccc([N+](=O)[O-])cc1)C(=O)NC(CCCCNC(=O)OCc1ccccc1)C(=O)ON1C(=O)CCC1=O (configuration not stated)
> 100 µM

Quickly give me recorded TGI for CCOC(=O)C(C)NC(=O)C(C)NC(=O)C(C)NC(=O)C(C)NC(=O)C(C)NC(=O)C(C)NC(=O)C(C)NC(=O)OCc1ccccc1 (configuration not stated) (Cbz-AAAAAAA-OEt; configuration not given here)
> 100 µM

Annotate the compound `COc1cc2c(cc1OC)CCN=C2` with its measured TGI.
> 100 µM

Quick one: give measured TGI for `Cc1cc2c(-c3ccccc3)cc(=O)[nH]c2cc1N`
> 100 µM

Answer with reported TGI of `CCOC(=O)c1nc2cc(C(F)(F)F)ccc2nc1Nc1ccc(Cl)c(Cl)c1`
> 100 µM

Consider the compound `CC1(C)OCN(c2ccc(Cl)cc2)Cn2c1nc1ccccc12` and give its recorded TGI.
> 100 µM

###

# System: SNB-19 CNS
# test_name: NCI tumour cell line growth inhibition, 48 h
Listed next: entries and their corresponding TGI.

compound	target_of_assay	value_kind	observed_measurement
Cc1ccc(N2C(=O)/C(=C3\Sc4c(nc(C)[nH]c4=O)N3c3ccccc3)SC2=S)cc1	SNB-19 CNS	TGI	> 100 µM

Write TGI of `CC(=O)/C(C)=N/N/C(N)=N\S(=O)(=O)c1cc(C(=O)Nc2ccccc2)c(Cl)cc1SCc1ccccc1` ; system used: SNB-19 CNS
> 100 µM

Param request: TGI | system SNB-19 CNS | item O=C1OC(CN2CCN(c3ccccc3)CC2)CN1C(=S)Nc1ccccc1 (stereo unspecified)
> 100 µM

Look up and report measured TGI (SNB-19 CNS) for the following compound: C[C@@H]1C(O)CC[C@H](C)C12CC=CC2=O (stereo partly specified)
> 100 µM

Consider the compound `O=c1nc2cc(-c3ccccc3)[nH]c2nn1-c1c(Cl)cc(Cl)cc1Cl` tested on SNB-19 CNS; state its TGI.
> 100 µM

Write down measured TGI (SNB-19 CNS) for this compound. CCC1(CN(C)C)CC/C(=C\c2ccc3c(c2)OCO3)C1=O (stereo unspecified)
> 100 µM
